# Tested on: volume of edema of left hind paw (carrageenin)
# methodNotes: Test on anti-inflammatory activity (carrageenin hind paw edema)
# Type: in vivo, Wistar male rats
# conditionDetails: Rattus norvegicus, po, 3 h; 90 mg/kg, p.o.; read-out: Percent inhibition (average value ± standard error)
endpoint: inhibition in vivo at 90 mg/kg

{"compound": "CN1Cc2ccccc2C(=O)c2c(CC(=O)O)cccc21", "inhibition in vivo at 90 mg/kg": "11.4%"}
{"compound": "CN1Cc2ccccc2C(=O)c2cc(CC(=O)OCCO)ccc21", "inhibition in vivo at 90 mg/kg": "30.4%"}
{"compound": "CN1Cc2cc(Cl)ccc2C(=O)c2cc(CC(=O)O)ccc21", "inhibition in vivo at 90 mg/kg": "34.9%"}

Problem: Lookup: inhibition in vivo at 90 mg/kg / volume of edema of left hind paw (carrageenin) / CN1Cc2ccccc2C(=O)c2cc(CC(=O)OCC3COC(C)(C)O3)ccc21 (centres unmarked)
Solution: 33.3%

Problem: Hello, I am looking for reported inhibition in vivo at 90 mg/kg with volume of edema of left hind paw (carrageenin) for `CN1Cc2ccccc2C(=O)c2cc(CC(=O)O)cc(Cl)c21` . Could you help?
Solution: 35.4%

Problem: Form entry - test system: volume of edema of left hind paw (carrageenin); read-out: inhibition in vivo at 90 mg/kg; compound: CCCCC1C(=O)N(c2ccccc2)N(c2ccccc2)C1=O [Phenylbutazone, phenylbutazone, reference compound]
Solution: 34.2%

Problem: Give inhibition in vivo at 90 mg/kg (volume of edema of left hind paw (carrageenin)) of the following compound: `CNC(=O)Cc1ccc2c(c1)C(=O)c1ccccc1CN2C`
Solution: 44.8%

Problem: Please tell me: inhibition in vivo at 90 mg/kg of `CN1Cc2ccccc2C(=O)c2cc(CC(=O)O)ccc21` , system volume of edema of left hind paw (carrageenin)?
Solution: 43.9%

Problem: Entry `CCN1Cc2ccccc2C(=O)c2cc(CC(=O)O)ccc21` , system volume of edema of left hind paw (carrageenin): what inhibition in vivo at 90 mg/kg was measured?
Solution: 35.1%

Problem: Param readout = inhibition in vivo at 90 mg/kg; param system = volume of edema of left hind paw (carrageenin); param query = `CCCN1Cc2ccccc2C(=O)c2cc(CC(=O)O)ccc21` ; response: value
Solution: 30.4%

Problem: // fetch volume of edema of left hind paw (carrageenin) inhibition in vivo at 90 mg/kg for CC(C(=O)O)c1ccc2c(c1)C(=O)c1ccccc1CN2C (centres unmarked)
Solution: 38.6%
